Assay Comment: HIF pathway transcriptional activators, primary screen, cell-based, U2OS HRE-luciferase, luminescence (AID 1910)
Protocol Conditions: U2OS HRE-luciferase reporter, hits give high values, screened at 7.5 µM (by protocol), normalized: DMSO 0%, desferrioxamine 100%
The campaign covered roughly 300,000 compounds. About 950 (0.32%) were called active. Shown is part of a subset that was picked to be rich in actives.
Cut-off 3% on activation, inclusive. At or above means y; below means n.

Known results for compounds:
| Chemical Smiles | Discrete Label |
| --- | --- |
| COc1ccccc1OCCCCCCN1CCN(C)CC1 | n |
| CCN1/C(=C\c2ccc3ccccc3[n+]2CC)Sc2cc(C)ccc21 | y |
| COc1ccc(C#Cc2c(-c3ccc(OC)cc3)oc3ccc(-c4ccc5c(c4)OCO5)cc23)cc1 | n |

input: Form field: activation at least 3%? Entry: `CS(=O)(=O)c1ccc(Cl)c(NC(=O)COC(=O)c2cccc(S(=O)(=O)N3CCCC3)c2)c1`
output: n

input: Form field: activation at least 3%? Entry: `Cc1cc(NC(=O)CSC2=NS(=O)(=O)c3cc(Cl)ccc3N2)no1`
output: n

----------
Attribute: activation
Assay Comment: HIF pathway transcriptional activators, primary screen, cell-based, U2OS HRE-luciferase, luminescence (AID 1910)
Protocol Conditions: U2OS HRE-luciferase reporter, hits give high values, screened at 7.5 µM (by protocol), normalized: DMSO 0%, desferrioxamine 100%
The campaign covered roughly 300,000 compounds. About 950 (0.32%) were called active. The sample holds actives, similar compounds and a random draw of the others, so the mix is not that of the screen.
Your answer is read as %, so omit the unit and give the number.

Example results:
| Compound | activation, % |
| --- | --- |
| CN1CCN(c2ncc3c(n2)CC(c2ccccc2F)CC3=O)CC1 (stereo not given) | -0.449 |
| COc1ccc(S(=O)(=O)NCC(c2ccc(C)cc2)N2CCN(C)CC2)cc1OC (stereo not given) | -0.0703 |
| COc1ccc(NC(=O)C(C)N2c3cccc4cccc(c34)S2(=O)=O)c(OC)c1 (stereo not given) | 0.272 |

input: So what's the measured activation for this one? `COc1ccc(CNC(=O)C2CCN(C(=O)c3ccccc3)CC2)cc1`
output: -0.358

input: So what's the measured activation for this one? Cc1nc2nc3c(cn2n1)C(=O)CC(c1ccccc1)C3 (stereo not given)
output: 842

input: So what's the measured activation for this one? `CC(C)COc1ccc(C(=O)OCC(=O)NCCC2=CCCCC2)cc1`
output: 0.818

input: So what's the measured activation for this one? COC(=O)C1CCN(C(=O)NC2CC(=O)N(c3ccc4c(c3)OCCO4)C2)CC1 (stereo not given)
output: 2.77

----------
Assay Comment: HIF pathway transcriptional activators, primary screen, cell-based, U2OS HRE-luciferase, luminescence (AID 1910)
Protocol Conditions: U2OS HRE-luciferase reporter, screened at 7.5 µM (by protocol), normalized: DMSO 0%, desferrioxamine 100%
In all, about 300,000 compounds went through this assay and about 950 (0.32%) were called active.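 How the source made its calls: active means mean activation of at least 10% of the iron chelator positive control signal, with at least half of replicates also reaching 10%; inconclusive means mean and replicate majority disagree about reaching 10%; inactive means mean and most replicates under 10%.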 What follows is part of a selection rich in actives, with near analogues and random picks from the rest.
Use one of these outcomes when replying: 1 (yes) (active), 0 (no) (inactive)

| Molecule | Discrete Label |
| --- | --- |
| COc1cccc(/C=N/Nc2cc(C)nc(-c3ccccc3O)n2)c1O | 0 (no) |

input: Tell me the assay call for `O=C(COc1coc(CN2CCN(c3ccccc3F)CC2)cc1=O)N1CCc2ccccc21` please.
output: 0 (no)

input: Tell me the assay call for `COc1ccc(-c2cc(C(F)(F)F)nc(S(C)(=O)=O)n2)cc1OC` please.
output: 1 (yes)

Taken from PubChem BioAssay AID1910.
